method_description: clinical
study_conditions: human, in vivo, weight adjusted clearance (Cl)
experimental_endpoint: clearance (mL/min/kg)
// return numeric value only (unit: mL/min/kg, not printed)

Note clearance for the compound shown: C[C@@H](O)[C@H]1C(=O)N2C(C(=O)O)=C(S[C@@H]3CN[C@H](C(=O)N(C)C)C3)[C@H](C)[C@H]12
2.33

====

method_description: Example 1: pharmacokinetics of Compound I, single (SD) and multiple (MD, q8h 7 days) ascending doses, 3-hour IV infusion, healthy adult subjects
Type: in vivo, human
study_conditions: human, plasma, intravenous, 250 mg, 250 mg single dose
experimental_endpoint: Cmax (ng/mL)
Please respond with the number in ng/mL and leave the unit unwritten.

Tell me Cmax reported for O=C(O)C[C@@H]1CC[C@H](NC(=O)Cc2cccs2)B(O)O1
5030
